Ref: patent US20030180744

# ASSAY TARGET: PDGF-AB (Homo sapiens, UniProt P04085;P01127 P04085:87-211,P01127:82-190)
# Sequence (P01127 82-190, chain 2 of 2, other chains not shown): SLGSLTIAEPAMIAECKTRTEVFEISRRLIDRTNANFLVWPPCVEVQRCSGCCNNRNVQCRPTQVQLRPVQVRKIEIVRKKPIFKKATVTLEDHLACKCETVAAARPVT
# PROTOCOL TEXT: filter; +/-0.009; high affinity component; PBSM, 37 C
# CONDITION INFO: tags: R&D Systems, E. coli; label: 5'-32P; three-way helix junction
ENDPOINT: Kd (nM)
One number for each entry, in nM.

-- ask Sample TACTCAGGGCACTGCAAGCAATTGTGGTCCCAATGGGCTGAGTAT (ssDNA, 3'-3' linked T at 3' end) [41t] — what was its Kd?
-- reply 0.138
